# System: MGC-803
# Assay: Antiproliferative activity against human MGC-803 cells assessed as reduction in cell viability incubated for 72 hrs by CCK-8 assay
# Type: functional, cell-based
# Condition set: MGC-803, 72 h
Please respond with MET when measured IC50 is strictly beneath 2000 nM, and with NOT MET in all other cases.

Smiles repr | Assigned category
O=C(Nc1ccc(-c2cnc3cc(N4CCN(C5CC5)CC4)ccn23)cc1)c1ccc([N+](=O)[O-])o1 | MET
COc1ccn2c(-c3ccc(NC(=O)c4ccc([N+](=O)[O-])o4)c(OC)c3)cnc2c1 | NOT MET
COc1ccn2c(-c3ccc(NC(=O)c4ccc([N+](=O)[O-])o4)nc3)cnc2c1 | NOT MET
COc1ccn2c(-c3ccc(NC(=O)c4ccc([N+](=O)[O-])o4)c(C)c3)cnc2c1 | MET
COc1ccn2c(-c3ccc(NC(=O)c4ccc([N+](=O)[O-])o4)c(C)c3C(F)(F)F)cnc2c1 | NOT MET
O=C(Nc1ccc(-c2cnc3cc(N4CCC4)ccn23)cc1)c1ccc([N+](=O)[O-])o1 | NOT MET
CC(=O)N1CC=C(c2ccn3c(-c4ccc(NC(=O)c5ccc([N+](=O)[O-])o5)cc4)cnc3c2)CC1 | MET
